target: SARS-CoV-2 S1-RBD fused to human Fc (S1-RBD-Fc) (SARS-CoV-2 Wuhan; human); experiment: SPR, antigen on chip
Kindly return condition met if reported kon is no lower than 300000 M⁻¹ s⁻¹; return condition not met if it is lower.

Here's what some known entries look like.
INSERT INTO measurements (binder, qualitative_label) VALUES
  ('NRCoV2-18 VHH (VHH) VHH: EVQLVESGGGLVQAGGSLRLSCVASGITISGYNMAWWRQTRGKQTERVAFINSGGSTTYSDSVKGRFTISRDNGKNTAYLQMNSLNAEDTADYFCSLHTSHDYWGQGTQVTVSS', 'condition not met'),
  ('NRCoV2-05 VHH (VHH) VHH: EVKLVQSGGGLVQPGGSLRLSCAASGFIFSNYAMNWVRQAPGKGLEWVSGINSGGGDTRYADSVKGRFTVSRDNAKNTLYLQMNSLKPEDTGVYYCSKGPVSSYYGSGYDYRGQGTQVTVSS', 'condition met'),
  ('NRCoV2-03 VHH (VHH) VHH: EVQLVSSGGGLVQAGGSLRLSCTASGITFSYYAMGWYRQAPGQPRELVASMSNMDSTIYADSVKGRFTISRDNAKTTIYLQMNNLKPEDTAVYFCNIYGPTYSTRRNEYWGQGTQVTVSS', 'condition not met');

Decide: is the reported value of kon for NRCoV2-06 VHH (VHH) VHH: EVQLVQSGGGLVQAGESLRLSCAASVSTFSSYAMGWYRQAPGKQRELVASIGFVGATYYIDSVKGRFTISRDNAKKTAYLQMNDLKPDDTAVYYCNARHYGGSEYWGQGTQVTVSS equal to or greater than 300000 M⁻¹ s⁻¹?
condition not met

Decide: is the reported value of kon for NRCoV2-02 VHH (VHH) VHH: EVQLVESGGGLVQAGGSLRLSCAASGFTFSNYAMNWVRQAPGKGLEWVSGISGRGDDTRYADSVKGRFTISRDNAKNTLFLQMRSLRPEDTGVYRCTKGPDLYYFGSGYSDRGQGTQVTVSS equal to or greater than 300000 M⁻¹ s⁻¹?
condition met

Decide: is the reported value of kon for NRCoV2-11 VHH (VHH) VHH: EVQLVSSGGGLVQPGGSLRLSCAASGSSLDSYSVSWFRQAPGKEREWISFISRYYSSTYYTDSVKGRFTTSRDGDQKTVHLQMNSLKPEDTAVYYCAARSRDFSSPFSATDTYTSWGQGTQVTVSS equal to or greater than 300000 M⁻¹ s⁻¹?
condition met

Where do these numbers come from? They come from patent US20240270826A1.
